- Target Or System: Ten-M2 endogenously expressed on human cancer cell lines (SNB-19 and others) (human, UniProt Q9NT68 1-2774)
- Experimental Protocol: cell-based or functional assay
Measurement Name: Internalized Fluorescence (SNB-19 cells, 37° C. 30 min, glutathione-resistant)
Answer as a number with no unit attached.

Task: Can you share its Internalized Fluorescence (SNB-19 cells, 37° C. 30 min, glutathione-resistant)? I mean this binder: Ten-M2-199 (antibody, IgG2, V domains shown, Fully human mAb from IgG2 kappa XenoMouse (B cell clone); also called Mab199) VH: QVQLVQSGAEVKKPGASVKVSCKASGYTFTNYDINWLRQASGQGLEWMGWMNPDSGNTGYAQRFQGRVTMTRDTSISTAYMELSSLRSEDTAVYYCARYISSLHYYYYGMDVWGQGTTVTVSS VL: DIQMTQSPSSLSASVGDRVTITCRASQSINSYLNWYQQKPGKAPRLLIYAASNLQSGVPSRFSGSGSGTDFTLTISSLQPEDFSTYYCQQSHNTPLTFGGGTKVEIK
Output: 32.9

Task: Consider the binder shown here: Ten-M2-179 (antibody, IgG2, V domains shown, Fully human mAb from IgG2 kappa XenoMouse (B cell clone); also called Mab179) VH: QVQLVESGGGVVQPGRSLRLSCAASGFTFSSYGMHWVRQAPGKGLEWVAFIWYDGSNKYYADSVKGRFTISRDNSKNTLYLQMNSLRAEDTAVYYCARDGSSGWYFFDYWGQGTLVTVSS VL: DIVMTQTPLSLSVTPGQPASISCKSSQSLLHSDRQTYLFWYLQKPGQPPQLLIYEVSNRFSGVPDRFSGSGSGTDFTLKISRVEAEDVGVYYCMQSIQLPPTFGPGTKVDIK What is its recorded Internalized Fluorescence (SNB-19 cells, 37° C. 30 min, glutathione-resistant)?
Output: 13.6

Task: Which Internalized Fluorescence (SNB-19 cells, 37° C. 30 min, glutathione-resistant) reading was recorded for the binder Ten-M2-120 (antibody, V domains shown, also called Mab120) VH: QVQLVESGGGVVQPGRSLRLSCAASGFTFSSYGMHWVRQAPGKGLEWVAVLWYDGSKKFYADSVKGRFTISRDNSKNTLYLQMNSLRAEDTALYYCARGPWNYYYYGMDVWGQGTTVTVSS VL: EIVLTQSPGTLSLSPGERATLSCRASQSVISSYLAWYQQKPGQAPRLLIYNASNRATGIPDRFSGSGSGTDFTLTISRLEPEDFAVYYCQQYGSSPITFGQGTRLEIK ?
Output: 26.4

Task: May I ask what Internalized Fluorescence (SNB-19 cells, 37° C. 30 min, glutathione-resistant) has been recorded for Ten-M2-188 (antibody, IgG2, V domains shown, Fully human mAb from IgG2 kappa XenoMouse (B cell clone)) VH: QVQLVQSGAEVKKPGASVKVSCKASGYTFTGYYMHWVRQAPGQGLEWMGWINPNSGGTNSAQRFQGRVTMTRDTSIYTAYMELSRLRSDDTAVYYCAREYRSGRYYNGMDVWGQGTTVTVSS VL: DIQLTQSPSSLSASVGDRVTITCRASQDISNYLAWYQQKPGKVPKLLIYAASTLQSGVPSRFSGSGSGTDFTLTISSLQPEDIATYSCQKYSSTPFTFGPGTKVDIK ?
Output: 22.1

Task: Would you kindly share the measured Internalized Fluorescence (SNB-19 cells, 37° C. 30 min, glutathione-resistant) for Ten-M2-213 (antibody, IgG2, V domains shown, Fully human mAb from IgG2 kappa XenoMouse (B cell clone); also called Mab 213) VH: QVQLVQSGAEVKKPGASVKVSCKASGYTFTNYDINWVRQATGQGLEWMGWMNPNSGNTGYAQKFQGRVTMTRNTSIRTAYMELSSLRSEDTAVYYCARGPGGSFYYYYGMDVWGQGTTVTVSS VL: DIQMTQSPSSLSASVGDRVTITCRASQSISSYLNWYQQKPGKAPNLLIYTASSLQSGVPSRFSGSGSGTVFTLTISSLQPEDFATYYCQQSSSTPFTFGPGTKVDFK ?
Output: 40.2

Task: Recorded Internalized Fluorescence (SNB-19 cells, 37° C. 30 min, glutathione-resistant) of Ten-M2-140 (antibody, IgG2, V domains shown, Fully human mAb from IgG2 kappa XenoMouse (B cell clone); also called Mab140; anti-Ten-M2 monoclonal antibody clone 140) VH: QEQLVESGGGVVQPGRSLRLSCAASGFTFSSHGMHWVRQAPGKGLEWVAIIWYDGSKKFYADSVKGRFTISRDNSKNTLSLQMNSLRAEDTAVYYCARGPWNYYYYGMDVWGQGTTVTVSS VL: EIVLTQSPGTLSLSPGERATFSCRASQSVISNYLAWYQQKPGQAPRLLIYNTSSRATGIPGRFSGGGSGTDFTLTITRLEPEDFAVYYCQQYGSSPITFGQGTRLEIK , please.
Output: 36.5
